- Protocol conditions: cell viability/%
Where a SMILES comes first, the peptide text is derived from it. [ ]: non-standard residue; d: D form. The star is where a group is joined. NHCH2CH2OH = OCCN*; For = O=C*
Measured property: viability (%)

INSERT INTO assay_data (compound, value_observed) VALUES
  ('CC(C)C[C@@H](NC(=O)[C@H](C)NC(=O)CNC(=O)[C@@H](NC=O)C(C)C)C(=O)N[C@@H](C)C(=O)N[C@H](CC(C)C)C(=O)N[C@H](C(=O)N[C@@H](C(=O)N[C@@H](Cc1c[nH]c2ccccc12)C(=O)N[C@@H](C(=O)N[C@@H](Cc1c[nH]c2ccccc12)C(=O)N[C@@H](C(=O)N[C@@H](Cc1c[nH]c2ccccc12)C(=O)N[C@H](CC(C)C)C(=O)N[C@@H](Cc1c[nH]c2ccccc12)C(=O)NCCO)C(C)C)C(C)C)[C@H](C)O)C(C)C [compound 4784] (For-VGA[dL]A[dL]V[dT]W[dV]W[dV]W[dL]W-NHCH2CH2OH)', 100),
  ('CNC(=O)C[C@@H](NC(=O)[C@H](C)NC(=O)CNC(=O)[C@@H](NC=O)C(C)C)C(=O)N[C@@H](C)C(=O)N[C@@H](C(=O)N[C@H](C(=O)N[C@@H](C(=O)N[C@@H](Cc1c[nH]c2ccccc12)C(=O)N[C@H](CC(C)C)C(=O)N[C@@H](Cc1c[nH]c2ccccc12)C(=O)N[C@H](CC(C)C)C(=O)N[C@@H](Cc1c[nH]c2ccccc12)C(=O)N[C@H](CC(C)C)C(=O)N[C@@H](Cc1c[nH]c2ccccc12)C(=O)NCCO)C(C)C)C(C)C)C(C)C [compound 10673] (For-VGA[dD](NHMe)A[dV]V[dV]W[dL]W[dL]W[dL]W-NHCH2CH2OH)', 97.7);

###

- Test system: P388 mouse leukemia cells
- Protocol conditions: 92 h
Where a SMILES comes first, the peptide text is derived from it. [ ]: non-standard residue; d: D form. The star is where a group is joined. NHCH2CH2OH = OCCN*; For = O=C*
Measured property: cell viability/% (%)

INSERT INTO assay_data (molecule, measured_property, units_symbol, value_observed) VALUES
  ('CC(C)C[C@@H](NC(=O)[C@H](C)NC(=O)[C@H](NC(=O)[C@H](C)NC(=O)CNC(=O)[C@@H](NC=O)C(C)C)C(C)C)C(=O)N[C@H](C(=O)N[C@H](CC(C)C)C(=O)N[C@@H](Cc1c[nH]c2ccccc12)C(=O)N[C@@H](C(=O)N[C@@H](Cc1c[nH]c2ccccc12)C(=O)N[C@@H](C(=O)N[C@@H](Cc1c[nH]c2ccccc12)C(=O)N[C@H](CC(C)C)C(=O)N[C@@H](Cc1c[nH]c2ccccc12)C(=O)NCCO)C(C)C)[C@H](C)O)C(C)C [compound 7325] (For-VGA[dV]A[dL]V[dL]W[dT]W[dV]W[dL]W-NHCH2CH2OH)', 'cell viability/%', '%', 82.2),
  ('CC(C)C[C@@H](NC(=O)[C@H](C)NC(=O)[C@H](NC(=O)[C@H](C)NC(=O)CNC(=O)[C@@H](NC=O)C(C)C)[C@H](C)O)C(=O)N[C@H](C(=O)N[C@H](CC(C)C)C(=O)N[C@@H](Cc1c[nH]c2ccccc12)C(=O)N[C@@H](C(=O)N[C@@H](Cc1c[nH]c2ccccc12)C(=O)N[C@H](CC(C)C)C(=O)N[C@@H](Cc1c[nH]c2ccccc12)C(=O)N[C@@H](C(=O)N[C@@H](Cc1c[nH]c2ccccc12)C(=O)NCCO)C(C)C)[C@H](C)O)C(C)C [compound 6248] (For-VGA[dT]A[dL]V[dL]W[dT]W[dL]W[dV]W-NHCH2CH2OH)', 'cell viability/%', '%', 87.7),
  ('CC(C)C[C@@H](NC(=O)[C@H](C)NC(=O)CNC(=O)[C@@H](NC=O)C(C)C)C(=O)N[C@@H](C)C(=O)N[C@@H](C(=O)N[C@H](C(=O)N[C@@H](C(=O)N[C@@H](Cc1c[nH]c2ccccc12)C(=O)N[C@@H](C(=O)N[C@@H](Cc1c[nH]c2ccccc12)C(=O)N[C@@H](C(=O)N[C@@H](Cc1c[nH]c2ccccc12)C(=O)N[C@@H](C(=O)N[C@@H](Cc1c[nH]c2ccccc12)C(=O)NCCO)C(C)C)C(C)C)C(C)C)[C@H](C)O)C(C)C)C(C)C [compound 12429] (For-VGA[dL]A[dV]V[dT]W[dV]W[dV]W[dV]W-NHCH2CH2OH)', 'cell viability/%', '%', 100.0),
  ('CNC(=O)C[C@@H](NC(=O)[C@@H](NC(=O)[C@@H](CC(C)C)NC(=O)[C@H](C)NC(=O)[C@@H](CC(C)C)NC(=O)[C@H](C)NC(=O)CNC(=O)[C@@H](NC=O)C(C)C)C(C)C)C(=O)N[C@@H](Cc1c[nH]c2ccccc12)C(=O)N[C@H](CC(C)C)C(=O)N[C@@H](Cc1c[nH]c2ccccc12)C(=O)N[C@@H](C(=O)N[C@@H](Cc1c[nH]c2ccccc12)C(=O)N[C@H](CC(C)C)C(=O)N[C@@H](Cc1c[nH]c2ccccc12)C(=O)NCCO)C(C)C [compound 7400] (For-VGA[dL]A[dL]V[dD](NHMe)W[dL]W[dV]W[dL]W-NHCH2CH2OH)', 'cell viability/%', '%', 100.0),
  ('CC(C)C[C@@H](NC(=O)[C@H](Cc1c[nH]c2ccccc12)NC(=O)[C@H](NC(=O)[C@H](Cc1c[nH]c2ccccc12)NC(=O)[C@H](NC(=O)[C@@H](NC(=O)[C@H](NC(=O)[C@H](C)NC(=O)[C@H](NC(=O)[C@H](C)NC(=O)CNC(=O)[C@@H](NC=O)C(C)C)[C@H](C)O)C(C)C)C(C)C)C(C)C)C(C)C)C(=O)N[C@@H](Cc1c[nH]c2ccccc12)C(=O)N[C@@H](C(=O)N[C@@H](Cc1c[nH]c2ccccc12)C(=O)NCCO)C(C)C [compound 5933] (For-VGA[dT]A[dV]V[dV]W[dV]W[dL]W[dV]W-NHCH2CH2OH)', 'cell viability/%', '%', 73.0),
  ('CC(C)C[C@@H](NC(=O)[C@H](Cc1c[nH]c2ccccc12)NC(=O)[C@H](NC(=O)[C@H](Cc1c[nH]c2ccccc12)NC(=O)[C@@H](CC(C)C)NC(=O)[C@H](Cc1c[nH]c2ccccc12)NC(=O)[C@@H](CC(C)C)NC(=O)[C@@H](NC(=O)[C@H](NC(=O)[C@H](C)NC(=O)[C@H](NC(=O)[C@H](C)NC(=O)CNC(=O)[C@@H](NC=O)C(C)C)[C@H](C)O)C(C)C)C(C)C)C(C)C)C(=O)N[C@@H](Cc1c[nH]c2ccccc12)C(=O)NCCO [compound 4440] (For-VGA[dT]A[dV]V[dL]W[dL]W[dV]W[dL]W-NHCH2CH2OH)', 'cell viability/%', '%', 85.6),
  ('CC(C)C[C@@H](NC(=O)[C@H](Cc1c[nH]c2ccccc12)NC(=O)[C@H](NC(=O)[C@H](Cc1c[nH]c2ccccc12)NC(=O)[C@H](NC(=O)[C@H](Cc1c[nH]c2ccccc12)NC(=O)[C@@H](CC(C)C)NC(=O)[C@@H](NC(=O)[C@H](NC(=O)[C@H](C)NC(=O)[C@H](NC(=O)[C@H](C)NC(=O)CNC(=O)[C@@H](NC=O)C(C)C)C(C)C)C(C)C)C(C)C)C(C)C)C(C)C)C(=O)N[C@@H](Cc1c[nH]c2ccccc12)C(=O)NCCO [compound 12721] (For-VGA[dV]A[dV]V[dL]W[dV]W[dV]W[dL]W-NHCH2CH2OH)', 'cell viability/%', '%', 51.7),
  ('CC(C)C[C@@H](NC(=O)[C@H](C)NC(=O)[C@H](NC(=O)[C@H](C)NC(=O)CNC(=O)[C@@H](NC=O)C(C)C)[C@H](C)O)C(=O)N[C@H](C(=O)N[C@H](CC(C)C)C(=O)N[C@@H](Cc1c[nH]c2ccccc12)C(=O)N[C@@H](C(=O)N[C@@H](Cc1c[nH]c2ccccc12)C(=O)N[C@H](CC(C)C)C(=O)N[C@@H](Cc1c[nH]c2ccccc12)C(=O)N[C@H](CC(C)C)C(=O)N[C@@H](Cc1c[nH]c2ccccc12)C(=O)NCCO)C(C)C)C(C)C [compound 7890] (For-VGA[dT]A[dL]V[dL]W[dV]W[dL]W[dL]W-NHCH2CH2OH)', 'cell viability/%', '%', 100.0);
